- test-description: gradient 5% acetonitrile 3 min, to 50% in 2 min, to 85% in 15 min, held 3 min, 100 µL/min
- experimental-conditions: column: Zorbax Extend-C18 2.1 x 50 mm; eluents: water / acetonitrile, 0.1% formic acid
measured-quantity: RP-LC retention time (s)

Note to self: RP-LC retention time recorded for CCOc1cccc(CNC(=O)c2c(C)sc3ccn(C)c(=O)c23)c1 was 804

Note to self: RP-LC retention time recorded for CCc1cc2c3c([nH]c2cc1S(=O)(=O)N1CCN(c2ccccn2)CC1)CC(C)(C)CC3=O was 695

Note to self: RP-LC retention time recorded for CCS(=O)(=O)N1CCCc2cc(C(=O)NCC(C)C)ccc21 was 808

Note to self: RP-LC retention time recorded for C=CCN(CC=C)C(=O)Cn1c(C2CC(=O)N(c3ccc(OC)cc3)C2)nc2ccccc21 (stereo not given) was 682

Note to self: RP-LC retention time recorded for O=C(CCSCc1cnn(-c2ccccc2)c1-n1cccc1)N1CCN(c2ccccn2)CC1 was 707

Note to self: RP-LC retention time recorded for CCOc1ccccc1CN1CCO[C@@H](COC)[C@@H]1c1ccccc1 was 699

Note to self: RP-LC retention time recorded for Cc1ccc(C2=NC3(CCN(C(=O)c4ccn[nH]4)CC3)ON2)cc1 was 680

Note to self: RP-LC retention time recorded for Cc1cc(C)n2c(Nc3cccc(C(F)(F)F)c3)c(-c3ccc(O)cc3)nc2n1 was 697

Note to self: RP-LC retention time recorded for CCOc1ccc(NC(=O)Cn2ccc3ccc(-c4nnc(CC)o4)cc32)cc1 was 851

Note to self: RP-LC retention time recorded for O=C(CCc1nc(-c2ccc(N3CCCC3)cc2)no1)N1CCC2(CC1)OCCO2 was 945

Note to self: RP-LC retention time recorded for CN1C(=O)c2cc(C(=O)NCCc3c[nH]c4ccccc34)nn2CC1(C)C(=O)NC1CCCCC1 (stereo not given) was 806

Note to self: RP-LC retention time recorded for CCOc1ccc(Nc2c(-c3nc(C)no3)cnc3nc(C)ccc23)cc1 was 778

Note to self: RP-LC retention time recorded for O=C(C1COc2ccccc2O1)N1CCc2cc(-c3ccno3)ccc21 (stereo not given) was 991

Note to self: RP-LC retention time recorded for CN(C)CCCNC(=O)C1CCN(c2nc3ccc(-c4ccccc4)nc3s2)CC1 was 668

Note to self: RP-LC retention time recorded for O=C(C1CC1)N1CCc2sc(S(=O)(=O)Nc3cc(Cl)ccc3F)cc2C1 was 868

###

- test-description: gradient 5% acetonitrile 3 min, to 50% in 2 min, to 85% in 15 min, held 3 min, 100 µL/min
- experimental-conditions: column: Zorbax Extend-C18 2.1 x 50 mm; eluents: water / acetonitrile, 0.1% formic acid
measured-quantity: RP-LC retention time (s)

See these solved cases before continuing.
Note to self: RP-LC retention time recorded for CCOCCCNC(=O)Nc1ccc(CCc2nc3ccccc3[nH]2)cc1 was 598

Note to self: RP-LC retention time recorded for COc1cc2c(cc1CNC(=O)c1ccc(Br)cc1)OCCCO2 was 939

Note to self: RP-LC retention time recorded for COCCn1cc(C(=O)NC2CCCCCC2)c2nn(-c3ccccc3)c(=O)c-2c1 was 1010

Note to self: RP-LC retention time recorded for CCCNC(=O)C1CCCN(c2ccc(SCC(=O)Nc3ccc(C)cc3C)nn2)C1 (configuration not stated) was 733

Note to self: RP-LC retention time recorded for Cc1cccc2cc(-c3noc(C(C)C)n3)c(NCCc3ccc(S(N)(=O)=O)cc3)nc12 was 1270

A = CC1CCN(C(=O)Cc2nnc(-c3ccccc3)o2)CC1
B = Cc1nn(-c2nc(-c3ccc(F)cc3)cs2)c(C)c1CC(=O)Nc1ccccc1F
Which has the smaller recorded RP-LC retention time, A or B ? Answer with the label corresponding to your selection.
A

###

- test-description: gradient 5% acetonitrile 3 min, to 50% in 2 min, to 85% in 15 min, held 3 min, 100 µL/min
- experimental-conditions: column: Zorbax Extend-C18 2.1 x 50 mm; eluents: water / acetonitrile, 0.1% formic acid
measured-quantity: RP-LC retention time (s)

Note to self: RP-LC retention time recorded for Cn1nc2n(c1=O)CCN(S(=O)(=O)c1ccc(C#N)cc1)CC2 was 655

Note to self: RP-LC retention time recorded for CCOc1ccccc1NC(=O)Cn1nc(C2CC2)cc1C(=O)N1CCCC1 was 850

Note to self: RP-LC retention time recorded for Cc1[nH]c(C)c(S(=O)(=O)N2CCC(C(=O)Nc3cc(F)ccc3F)CC2)c1C(=O)N1CCCC1 was 644

Note to self: RP-LC retention time recorded for CN(C)c1ccc(-c2nc3cnccn3c2Nc2ccc(C(=O)O)cc2)cc1 was 616

A = O=C(Nc1ccc2c(c1)CCC(=O)N2Cc1ccccc1)c1ccccc1C(F)(F)F
B = CCn1c(=O)c(=O)n(CC(=O)NCCN2CCCC2)c2cccnc21
C = Cc1cccc(-c2nc(-c3ccc4c(c3)oc(=O)n4C(C)C)no2)c1
Sort (3 compounds) by RP-LC retention time: min first. I'd appreciate it if you listed the labels in the requested order.
B, A, C
(B: 559 s, A: 855 s, C: 1250 s)

###

- test-description: gradient 5% acetonitrile 3 min, to 50% in 2 min, to 85% in 15 min, held 3 min, 100 µL/min
- experimental-conditions: column: Zorbax Extend-C18 2.1 x 50 mm; eluents: water / acetonitrile, 0.1% formic acid
measured-quantity: RP-LC retention time (s)

Note to self: RP-LC retention time recorded for Cc1ccc(-n2nnc(C(=O)O)c2C)c(F)c1 was 705

Note to self: RP-LC retention time recorded for Cc1nnc(N2CCCC(C(=O)NCc3ccco3)C2)c2nn(-c3ccccc3)c(C)c12 (centres undefined) was 680

Note to self: RP-LC retention time recorded for O=C(c1cn2ccnc(-c3ccccc3)c2n1)N1CCN(C(=O)c2ccco2)CC1 was 686

Note to self: RP-LC retention time recorded for O=C(NCc1ccccc1)C1Oc2ccccc2NC1=O (centres undefined) was 701

###

- test-description: gradient 5% acetonitrile 3 min, to 50% in 2 min, to 85% in 15 min, held 3 min, 100 µL/min
- experimental-conditions: column: Zorbax Extend-C18 2.1 x 50 mm; eluents: water / acetonitrile, 0.1% formic acid
measured-quantity: RP-LC retention time (s)

See these solved cases before continuing.
Note to self: RP-LC retention time recorded for COCC(=O)NC1CCC12CCN(C(=O)C1CCOCC1)CC2 (centres undefined) was 603

Note to self: RP-LC retention time recorded for Cn1nc(C(=O)Nc2cccc(-c3nnc4n3CCCC4)c2)c2ccccc21 was 712

Note to self: RP-LC retention time recorded for OC(CNCc1ccc(-c2ccc(Br)cc2)o1)c1ccccc1 (centres undefined) was 755

Note to self: RP-LC retention time recorded for CCOc1ccccc1NC(=O)Cn1nc(N2CCSCC2)c2ccccc2c1=O was 929

Note to self: RP-LC retention time recorded for Cn1nccc1C(=O)Nc1ccc(OCc2nnc(-c3ccccc3)o2)cc1 was 786

Note to self: RP-LC retention time recorded for Cc1nc2ccn(Cc3ccco3)c(=O)c2cc1C(=O)N1CCN(C)CC1 was 644

Note to self: RP-LC retention time recorded for Cc1cccc(-c2noc(-c3ccc(N4CCN(C5CCCCC5)CC4)nc3)n2)c1 was 831

Note to self: RP-LC retention time recorded for CNC(=O)CSc1nnc(N2CCN(C(=O)c3cc(=O)c4ccccc4o3)CC2)s1 was 599

a = CCN1C(=O)c2cccnc2Sc2cc(NC(=O)c3ccccc3OC)ccc21
b = CN(C)C[C@@H]1CN(c2ncccn2)C[C@H]1NS(=O)(=O)Cc1ccc(F)cc1
API: POST /compare with a and b ; response names the item with higher RP-LC retention time. Answer with the label corresponding to your selection.
a

P = Cc1cc(Cl)ccc1N1C(=O)CN(S(C)(=O)=O)CC1(C)C(=O)NC1CCCCC1 (centres undefined)
Q = CCOC(=O)CNC(=O)Cn1nc2n(c(=O)c1=O)CCN2c1ccccc1
Which has the smaller recorded RP-LC retention time, P or Q ? Answer with the label corresponding to your selection.
Q
(Q: 626 s, P: 900 s)

###

- test-description: gradient 5% acetonitrile 3 min, to 50% in 2 min, to 85% in 15 min, held 3 min, 100 µL/min
- experimental-conditions: column: Zorbax Extend-C18 2.1 x 50 mm; eluents: water / acetonitrile, 0.1% formic acid
measured-quantity: RP-LC retention time (s)

Note to self: RP-LC retention time recorded for Cc1ccc(NC(=O)Cn2cccc2-c2nnc(C3CCC3)o2)cc1Cl was 1010

Note to self: RP-LC retention time recorded for O=C(Cn1nc(S(=O)(=O)c2ccc(Cl)cc2)ccc1=O)N1CCN(c2ccc(F)cc2)CC1 was 910

Note to self: RP-LC retention time recorded for CC(C)n1c(N2CCCN(C(=O)c3ccc(F)c(F)c3)CC2)cc(=O)n(C(C)C)c1=O was 859

Note to self: RP-LC retention time recorded for COc1ccc(-c2cc(N3CCC(NC(=O)c4ccc(C#N)cc4)C3)n[nH]2)cc1 (stereo not given) was 685

Note to self: RP-LC retention time recorded for Cc1sc2ccn(C)c(=O)c2c1C(=O)N1CCN(c2cccc(Cl)c2)CC1 was 844

Note to self: RP-LC retention time recorded for CC(C)CN1Cc2ccccc2-n2ccnc2C12CCN(C(=O)c1ccn[nH]1)CC2 was 615

Note to self: RP-LC retention time recorded for Cc1ccc(NC(=O)Cn2c(=O)n(-c3ccc(F)cc3)c3ncccc32)c(C)c1 was 875

Note to self: RP-LC retention time recorded for CCCn1cnc2cc(CNC(=O)c3cc4cc(Cl)ccc4[nH]3)ccc21 was 720

Note to self: RP-LC retention time recorded for O=C(O)c1cc(-c2ccco2)n(C2CCS(=O)(=O)C2)n1 (stereo not given) was 604

Note to self: RP-LC retention time recorded for Cc1cc(C)cc(NC(=O)N(C)CC2CCOC2)c1 (stereo not given) was 743
